B1: TPR 5TU (parent)
chain: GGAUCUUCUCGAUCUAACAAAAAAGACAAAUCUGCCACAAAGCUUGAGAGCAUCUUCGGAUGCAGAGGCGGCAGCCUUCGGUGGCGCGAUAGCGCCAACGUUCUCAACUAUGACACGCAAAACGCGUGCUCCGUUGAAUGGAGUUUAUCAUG

- Variants of: B1
- PROTOCOL NOTES: polymerase ribozyme fitness, log enrichment relative to wild type (log ratio); higher = more active; in vitro selection for triplet polymerase activity
This sample holds only a part of the variants without activity.
MEASURE NAME: polymerase ribozyme fitness (log ratio)

Consider the reported polymerase ribozyme fitness (log ratio) for these variants:
[
  {
    "VARIANT DESIGNATION": "U15G C57G C93A C99G",
    "MEASURE NAME": "polymerase ribozyme fitness (log ratio)",
    "OBSERVED VALUE": -4.06
  },
  {
    "VARIANT DESIGNATION": "C14A A17C C93U C116G",
    "MEASURE NAME": "polymerase ribozyme fitness (log ratio)",
    "OBSERVED VALUE": -2.99
  },
  {
    "VARIANT DESIGNATION": "U53G G59C U61A G88C G94U",
    "MEASURE NAME": "polymerase ribozyme fitness (log ratio)",
    "OBSERVED VALUE": "≤ -4.2"
  },
  {
    "VARIANT DESIGNATION": "A49C U55A G86A C99G A142U",
    "MEASURE NAME": "polymerase ribozyme fitness (log ratio)",
    "OBSERVED VALUE": "≤ -4.2"
  },
  {
    "VARIANT DESIGNATION": "U31C C35U A41G C54U G86C",
    "MEASURE NAME": "polymerase ribozyme fitness (log ratio)",
    "OBSERVED VALUE": -2.75
  },
  {
    "VARIANT DESIGNATION": "C87U U90C",
    "MEASURE NAME": "polymerase ribozyme fitness (log ratio)",
    "OBSERVED VALUE": -3.33
  }
]

Enquiry: Give the value of polymerase ribozyme fitness (log ratio) reported for the following: C72U U77C C96A A110G
Return: ≤ -4.2

Enquiry: Give the value of polymerase ribozyme fitness (log ratio) reported for the following: C10U G94A
Return: -2.69

Enquiry: Give the value of polymerase ribozyme fitness (log ratio) reported for the following: U7C A23U C87A A89G A115U U134A
Return: ≤ -4.2

Enquiry: Give the value of polymerase ribozyme fitness (log ratio) reported for the following: A29C G84A
Return: -4.17

Enquiry: Give the value of polymerase ribozyme fitness (log ratio) reported for the following: C5U U55G C79G C87A A97U A106C
Return: ≤ -4.2

Each recorded value in this set is attributed to the RNAGym collection of RNA variant scans (doi:10.1073/pnas.2313332121).
